assay: Cytotoxicity against CHO cells assessed as reduction in cell viability measured after 24 hrs by MTT assay; type: cell-based, Cricetulus griseus; details: chinese hamster
readout name: CC50 at 24 h (µM)
Give bare numbers, in µM.

Please report the recorded CC50 at 24 h for ClC(Cl)(Cl)c1nc2ccccc2nc1Sc1ccccc1 . 58.5

----------
assay: Cytotoxicity against human HepG2 cells assessed as reduction in cell viability measured after 72 hrs by MTT assay; assay type: cell-based
readout name: CC50 at 72 h (µM)
Give bare numbers, in µM.

Answered cases to consult:
Please report the recorded CC50 at 72 h for FC(F)(F)c1ccc(Sc2nc3ccccc3nc2C(Cl)(Cl)Cl)cc1 . 29.9

Please report the recorded CC50 at 72 h for Fc1cccc(Sc2nc3ccccc3nc2C(Cl)(Cl)Cl)c1 . 35.9

Please report the recorded CC50 at 72 h for COc1ccccc1Sc1nc2ccccc2nc1C(Cl)(Cl)Cl . 42.6

Note: attention shifts to another entry.
Please report the recorded CC50 at 72 h for ClC(Cl)(Cl)c1nc2ccccc2nc1Sc1ccc(Br)cc1 . 42.2

----------
Task for the reader: assign each of the following compounds its reported selectivity ratio.
test: Selectivity index, ratio of CC50 for cytotoxicity against human HepG2 cells to EC50 for antiplasmodial activity against multidrug-resistant Plasmodium falciparum K1 infected in human erythrocytes; format: toxicity, cell-based; settings: read-out: Ratio CC50/EC50
Answers are plain numbers.

Answered cases to consult:
Please report the recorded selectivity ratio for COc1ccccc1Sc1nc2ccccc2nc1C(Cl)(Cl)Cl . 56.8

Please report the recorded selectivity ratio for Fc1ccccc1Sc1nc2ccccc2nc1C(Cl)(Cl)Cl . 127

Please report the recorded selectivity ratio for Fc1cccc(Sc2nc3ccccc3nc2C(Cl)(Cl)Cl)c1 . 116

Please report the recorded selectivity ratio for FC(F)(F)Oc1ccc(Sc2nc3ccccc3nc2C(Cl)(Cl)Cl)cc1 . 58.3

Please report the recorded selectivity ratio for Clc1ccc(Sc2nc3ccccc3nc2C(Cl)(Cl)Cl)cc1 . 77.2

Please report the recorded selectivity ratio for Cc1ccc(Sc2nc3ccccc3nc2C(Cl)(Cl)Cl)cc1 . 46.5

Please report the recorded selectivity ratio for Fc1ccc(Sc2nc3ccccc3nc2C(Cl)(Cl)Cl)cc1 . 85.6

Please report the recorded selectivity ratio for ClC(Cl)(Cl)c1nc2ccccc2nc1Sc1ccccc1 . 175

Please report the recorded selectivity ratio for Clc1cccc(Sc2nc3ccccc3nc2C(Cl)(Cl)Cl)c1Cl . 112

Please report the recorded selectivity ratio for Clc1ccccc1Sc1nc2ccccc2nc1C(Cl)(Cl)Cl . 73.8

Respectfully, I request selectivity ratio for each entry included below.
1. Clc1cccc(Sc2nc3ccccc3nc2C(Cl)(Cl)Cl)c1
2. O=[N+]([O-])c1ccc(Sc2nc3ccccc3nc2C(Cl)(Cl)Cl)cc1

1: 93.4; 2: 79.6

Respectfully, I request selectivity ratio for each entry included below.
1. COc1ccc(Cl)c(Sc2nc3ccccc3nc2C(Cl)(Cl)Cl)c1
2. C[C@H]1c2cccc(O)c2C(=O)C2=C(O)[C@]3(O)C(=O)C(C(N)=O)=C(O)[C@@H](N(C)C)[C@@H]3[C@@H](O)[C@@H]21
3. FC(F)(F)c1ccc(Sc2nc3ccccc3nc2C(Cl)(Cl)Cl)cc1

1. 127
2. 3.3
3. 59.8

----------
assay: Cytotoxicity against human HepG2 cells assessed as reduction in cell viability measured after 72 hrs by MTT assay; type: cell-based
readout name: CC50 at 72 h

Please report the recorded CC50 at 72 h for Cc1nc2ccccc2nc1Sc1ccccc1 . > 25 µM

Please report the recorded CC50 at 72 h for FC(F)(F)c1nc2ccccc2nc1Sc1ccccc1 . > 50 µM

Please report the recorded CC50 at 72 h for Clc1ccc(Sc2nc3ccccc3nc2C(Cl)(Cl)Cl)c(Cl)c1 . > 31.2 µM

Respectfully, I request CC50 at 72 h for each entry included below.
1. COc1ccc(Sc2nc3ccccc3nc2C(Cl)(Cl)Cl)cc1
2. O=C1C(O)=C([C@H]2CC[C@H](c3ccc(Cl)cc3)CC2)C(=O)c2ccccc21 [ATOVAQUONE]
3. c1ccc(Sc2cnc3ccccc3n2)cc1

1. > 1.9 µM
2. > 15.6 µM
3. > 50 µM
